Give protein stability index for every item shown.
B1: KCNAB2 (parent)
chain: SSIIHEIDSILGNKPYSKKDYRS

variants of: B1; assay: protein stability index of a GFP-peptide fusion (GPS, HEK-293T) (PSI 1-6); higher = more stable; conditions: c terminus: native;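 also: lentivirally expressed fusions sorted by FACS into six bins by GFP to DsRed ratio, PSI derived from sequencing read proportions per bin multiplied by bin number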

Take a look at these entries with their results.
MUTATION_STRING	protein stability index
I4P	4.63
I10D	4.05
D8P	2.77
S9M	2.2
I4C	3.6
D20V	2.03
D20N	3.2
S9G	3.66

Here are 3 variants. What values of protein stability index were reported for them?
1. S9D
2. G12F
3. R22K

1: 2.89; 2: 4.21; 3: 4.37
